# System Under Test: Ras-related protein Rab7 wild type (dog)
# Measurement Description: Rab7 wildtype GTP binding inhibitors, SAR follow-up, biochemical, dog Rab7, bead multiplex flow cytometry, round 2 (AID 588631)
# Assay Context: Bead-based multiplex flow cytometry, fluorescent GTP binding
pEC50: −log10 of the molar value.
Observable: pEC50

[[record]]
smiles_repr = "CC1(C)Cc2c(sc(NC(=S)NC(=O)c3ccc(F)cc3)c2C(=O)O)CO1"
obs_value = 7.02


1. CC1(C)Cc2c(sc(NC(=S)NC(=O)c3ccco3)c2C(=O)O)CO1
2. Cc1ccc(C(=O)NC(=S)Nc2sc3c(c2C(=O)O)CC(C)(C)OC3)cc1
Task: Select one: 1 or 2 . Criterion: greater recorded pEC50. Answer by quoting the chosen item's label.
Result: 1
(1: 7.13, 2: 6.87)
